System: TGW (Neuroblastoma)
ASSAY REMARKS: combination Emax (second highest fraction inhibited in the dose matrix, 72 h); higher = more inhibition; extreme values may be limits of the assay
Please note: class 1 applies when combination Emax is 0.6 or greater, and class 0 applies otherwise.

Solved entries:
CC(=O)c1c(C)c2cnc(Nc3ccc(N4CCNCC4)cn3)nc2n(C2CCCC2)c1=O [Palbociclib] + Cc1c2c(nn1C)CSCc1cc(n(C)n1)CSc1cc(c3ccccc3c1)OCCCc1c(C(=O)O)n(C)c3c-2c(Cl)ccc13 [AZD5991] (first compound max 10 µM, 7x7, partner max 1 µM) : class 0
Cn1cnc2c(F)c(Nc3ccc(Br)cc3Cl)c(C(=O)NOCCO)cc21 [Selumetinib] + CC(C)n1c(=O)n(C)c2cnc3cc(F)c(-c4ccc(OCCCN5CCCCC5)nc4)cc3c21 [AZD1390] (first compound max 10 µM, 7x7, partner max 0.3 µM) : class 0
CN(C)CCCOc1ccc(-c2ccc3ncc4c(c3c2)n(C2CCOCC2)c(=O)n4C)cn1 [AZD0156] + C=CCn1c(=O)c2cnc(Nc3ccc(N4CCN(C)CC4)cc3)nc2n1-c1cccc(C(C)(C)O)n1 [AZD1775] (first compound max 1 µM, partner max 1 µM) : class 1
COc1nnc2ccc(N3CCC(c4ccc(OCCN5CCN(C)C(=O)[C@H]5C)cc4)CC3)nn12 [AZD5153] + Cc1c2c(nn1C)CSCc1cc(n(C)n1)CSc1cc(c3ccccc3c1)OCCCc1c(C(=O)O)n(C)c3c-2c(Cl)ccc13 [AZD5991] (first compound max 1 µM, 7x7, partner max 1 µM) : class 1

Consider the additional molecule presented here.
### Prompt Entry CC(=O)c1c(C)c2cnc(Nc3ccc(N4CCNCC4)cn3)nc2n(C2CCCC2)c1=O [Palbociclib] + CC1(C)CCC(CN2CCN(c3ccc(C(=O)NS(=O)(=O)c4ccc(NCC5CCOCC5)c([N+](=O)[O-])c4)c(Oc4cnc5[nH]ccc5c4)c3)CC2)=C(c2ccc(Cl)cc2)C1 [Venetoclax] (first compound max 10 µM, 7x7, partner max 1 µM) : is its combination Emax no less than 0.6?
### Response class 0
